Measured CE complexation efficiency values are reported for all entries that follow.
Experiment description: Phase solubility studies with HP-β-CD
Type: physicochemical
Test context: 37 °C, pH 8.5, with HP-β-CD
Kindly provide the numeric value in % only, without the unit symbol.

The following molecules have reported results that may help.
# Molecule, CE complexation efficiency, %
measured = [
    ("COc1ccc(C2C/C(=N\\NC(=O)c3ccncc3)c3c(O)cc(O)cc3O2)cc1O (racemic)", 0.04),
    ("COc1ccc(C2C/C(=N\\NC(=O)c3ccccc3)c3c(O)cc(O)cc3O2)cc1O (racemic)", 0.15),
]

Quick one: CE complexation efficiency of COc1ccc(C2CC(=NNC(N)=S)c3c(O)cc(O)cc3O2)cc1O (stereo not shown) ? 0.3

Param item = COc1ccc(C2CC(=O)c3c(O)cc(O)cc3O2)cc1O (stereo not shown) [Hesperetin, 3′,5,7-Trihydroxy-4′-methoxyflavanone] ; retrieve measured CE complexation efficiency. 19

---

Experiment description: Phase solubility studies with HP-β-CD
Format: physicochemical
Test context: 60 °C, pH 8.5, with HP-β-CD
Measured endpoint: Kc complexation constant (M⁻¹)
Report the value in M⁻¹ with no unit label.

# Compound, Reading unit, Kc complexation constant
measured = [
    ("COc1ccc(C2CC(=NNC(N)=S)c3c(O)cc(O)cc3O2)cc1O (stereo not shown)", "M⁻¹", 3.2),
    ("COc1ccc(C2CC(=O)c3c(O)cc(O)cc3O2)cc1O (stereo not shown) [Hesperetin, 3′,5,7-Trihydroxy-4′-methoxyflavanone]", "M⁻¹", 2365),
    ("COc1ccc(C2C/C(=N\\NC(=O)c3ccccc3)c3c(O)cc(O)cc3O2)cc1O (racemic)", "M⁻¹", 728),
]

Now take the following compound into account.
Can you share its Kc complexation constant? I mean this compound: COc1ccc(C2C/C(=N\NC(=O)c3ccncc3)c3c(O)cc(O)cc3O2)cc1O (racemic) 132

---

Experiment description: Phase solubility studies with HP-β-CD
Type: physicochemical
Test context: 37 °C, pH 3.6, with HP-β-CD
Protocol: The purpose of this part of the study was to determine the solubility of compounds of hesperetin and its Schiff bases (HHSB, HIN, and HTSC) in aqueous solution at different pHs and temperatures, and the effect of their inclusion in modified HP-β-CD on the aqueous solubility of these compounds at different pH values. […] Complexation efficiency was calculated from the slope of the phase solubility diagram using Equation (2):(2) CE=S0×Kc=slope/1−slope […]
Reported CE complexation efficiency values for the following compounds.
Could you give the number and then its unit, please?

Answered cases to consult:
# Compound, Measured endpoint, Reported value
records = [
    ("COc1ccc(C2C/C(=N\\NC(=O)c3ccncc3)c3c(O)cc(O)cc3O2)cc1O (racemic)", "CE complexation efficiency", "1.3%"),
    ("COc1ccc(C2CC(=NNC(N)=S)c3c(O)cc(O)cc3O2)cc1O (stereo not shown)", "CE complexation efficiency", "0.1%"),
]

// CE complexation efficiency lookup, key: COc1ccc(C2C/C(=N\NC(=O)c3ccccc3)c3c(O)cc(O)cc3O2)cc1O (racemic) 1.1%

Item under review: COc1ccc(C2CC(=O)c3c(O)cc(O)cc3O2)cc1O (stereo not shown) [Hesperetin, 3′,5,7-Trihydroxy-4′-methoxyflavanone] . Reported CE complexation efficiency? 44.4%

---

Each entry below lists one item and its recorded solubility at 60 min value.
Experiment description: Phase solubility studies with HP-β-CD
Assay type: physicochemical
Test context: thermodynamic from solid; 25 °C, pH 6.5 sodium phosphate buffer, with HP-β-CD; read-out: S0 (solubility with HP-β-CD)
Write the number in µM without appending the unit.

I would be grateful if you could share the reported solubility at 60 min for COc1ccc(C2C/C(=N\NC(=O)c3ccncc3)c3c(O)cc(O)cc3O2)cc1O (racemic) . 52

Could you share which solubility at 60 min value was measured for COc1ccc(C2CC(=NNC(N)=S)c3c(O)cc(O)cc3O2)cc1O (stereo not shown) ? 61

Can you share its solubility at 60 min? I mean this molecule: COc1ccc(C2C/C(=N\NC(=O)c3ccccc3)c3c(O)cc(O)cc3O2)cc1O (racemic) 45

Please report the recorded solubility at 60 min for COc1ccc(C2CC(=O)c3c(O)cc(O)cc3O2)cc1O (stereo not shown) [Hesperetin, 3′,5,7-Trihydroxy-4′-methoxyflavanone] . 208
